REPORTED ENDPOINT: melting point

# MOL SMILES, RESULT
rows = [
    ("C[C@H](NS(=O)(=O)c1ccc(-c2c(C#N)c3cc(Br)cnc3n2-c2ncccn2)nc1)C(F)(F)F", "223 to 225 °C"),
    ("Cc1cnc2c(c1)c(C#N)c(-c1ncc(S(=O)(=O)N[C@H](C)C(F)(F)F)cn1)n2C1CCC1", "186 to 188 °C"),
    ("Cc1cc2c(cn1)c(C#N)c(-c1ccc(S(=O)(=O)NC(CF)CF)cc1)n2C1CCC1", "234 to 236 °C"),
    ("CC(C)(C)NS(=O)(=O)c1ccc(-c2c(C#N)c3cc(C(F)(F)F)cnc3n2-c2cnccn2)cc1", "190 to 192 °C"),
    ("Cc1ccc2c(C#N)c(-c3ncc(S(=O)(=O)NC(CF)CF)cn3)n(C3CCC3)c2n1", "211 to 217 °C"),
    ("N#Cc1c(-c2ccc(S(=O)(=O)NC3(C(F)(F)F)CC3)cn2)n(C2CCC2)c2cc(Cl)ncc12", "227 to 228 °C"),
    ("C[C@H](NS(=O)(=O)c1ccc(-c2c(C#N)c3cc(C4CC4)cnc3n2-c2cnccn2)nc1)C(F)(F)F", "219 to 221 °C"),
    ("C[C@H](NS(=O)(=O)c1ccc(-c2c(C#N)c3ccc(Cl)nc3n2C2CCC2)nc1)C(F)(F)F", "172 to 178 °C"),
    ("N#Cc1c(-c2ccc(S(=O)(=O)NC3(C(F)(F)F)CC3)cn2)n(C2CCC2)c2ncc(C3CC3)cc12", "163 to 171 °C"),
    ("C[C@@H](NS(=O)(=O)c1ccc(-c2c(C#N)c3cc(Cl)ncc3n2C2CCC2)nc1)C(F)(F)F", "181 to 185 °C"),
    ("C[C@H](NS(=O)(=O)c1ccc(-c2c(C#N)c3cc(Cl)cnc3n2-c2cnccn2)nc1)C(F)(F)F", "247 to 249 °C"),
    ("N#Cc1c(-c2ccc(S(=O)(=O)NC(CF)CF)cn2)n(C2CCC2)c2ncc(Cl)cc12", "176 to 178 °C"),
    ("C[C@H](NS(=O)(=O)c1ccc(-c2c(C#N)c3cc(C4CC4)cnc3n2C2CCC2)nc1)C(F)(F)F", "136 to 144 °C"),
    ("Cc1cnc2c(C#N)c(-c3ccc(S(=O)(=O)NC(C)(C)C)cn3)n(C3CCCC3)c2c1", "267 to 269 °C"),
    ("C[C@H](NS(=O)(=O)c1ccc(-c2c(C#N)c3cc(C4CC4)cnc3n2C2CCC2)cc1)C(F)(F)F", "196 to 203 °C"),
    ("CC(C)(C)NS(=O)(=O)c1ccc(-c2c(C#N)c3cc(C(F)(F)F)cnc3n2-c2ccccn2)cc1", "227 to 230 °C"),
    ("Cc1cc2c(cn1)c(C#N)c(-c1ccc(S(=O)(=O)N[C@H](C)C(F)(F)F)cc1)n2C1CCC1", "247 to 249 °C"),
    ("Cc1ccc2c(C#N)c(-c3ccc(S(=O)(=O)NC4(C(F)(F)F)CC4)cn3)n(C3CCC3)c2n1", "230 to 236 °C"),
    ("CC[C@H](NS(=O)(=O)c1ccc(-c2c(C#N)c3cc(Cl)cnc3n2C2CCCC2)nc1)C(F)(F)F", "180 to 185 °C"),
    ("CSc1cnc2c(c1)c(C#N)c(-c1ccc(S(=O)(=O)NC3(C(F)(F)F)CC3)cc1)n2C1CCC1", "197 to 199 °C"),
    ("NC(=O)c1c(-c2ccc(S(=O)(=O)NC3(C(F)(F)F)CC3)cn2)n(C2CCC2)c2ncc(C(F)(F)F)cc12", "230 to 235 °C"),
    ("CCc1cnc2c(c1)c(C#N)c(-c1ccc(S(=O)(=O)N[C@@H](C)C(F)(F)F)cc1)n2C1CCC1", "194 to 201 °C"),
    ("COc1ccc2c(n1)c(C#N)c(-c1ccc(NS(=O)(=O)C(C)C)cc1)n2CC1CC1", "230 to 232 °C"),
    ("CSc1cnc2c(c1)c(C#N)c(-c1ccc(S(=O)(=O)N[C@@H](C)C(F)(F)F)cn1)n2C1CCC1", "154 to 158 °C"),
    ("Cc1cnc2c(C#N)c(-c3ccc(S(=O)(=O)NC4(C)CC4)cn3)n(C3CCC3)c2c1", "187 to 188 °C"),
    ("Cc1cnc2c(C#N)c(-c3ncc(S(=O)(=O)N[C@@H](C)C(F)(F)F)cn3)n(C3CCCC3)c2c1", "262 to 264 °C"),
    ("COc1ccnc(-n2c(-c3ccc(S(=O)(=O)N[C@@H](C)C(F)(F)F)cn3)c(C#N)c3cc(C(F)(F)F)cnc32)n1", "209 to 211 °C"),
    ("Cc1cnc2c(c1)c(C#N)c(-c1ccc(S(=O)(=O)N[C@@H](C)C(F)(F)F)cn1)n2C1CCC1", "177 to 179 °C"),
    ("CCc1cnc2c(c1)c(C#N)c(-c1ccc(S(=O)(=O)N[C@@H](C)C(F)(F)F)cn1)n2-c1ccc(F)cc1", "212 to 214 °C"),
    ("Cc1cnc2c(c1)c(C#N)c(-c1ccc(S(=O)(=O)N[C@H](C)C(F)(F)F)cn1)n2C1CCCC1", "155 to 162 °C"),
]
